Source: patent US7871996B2

system.name: UniProtKB P29475
test.description: NOS1 enzymatic activity: conversion of 14-C-L-arginine to L-citrulline
measurement.conditions: purified recombinant NOS1, 5 nM, 60 minutes, 37° C.; read-out: ED50 NOS1
Counter-ions that a name gives are not always drawn.
readout.name: EC50 (µM)
Numbers only, in µM.

GET /values?readout=EC50&item= CC1(C)N([O])C(c2ccc(C(=O)O)cc2)=[N+]([O-])C1(C)C [Carboxy-PTIO, (potassium salt)]
1360

---

system.name: NOS1 (nNOS) (Homo sapiens, UniProt P29475)
Construct: made in house
test.description: NOS1 enzymatic activity: conversion of 14-C-L-arginine to L-citrulline
Assay type: biochemical
measurement.conditions: purified recombinant NOS1
readout.name: NOS1 inhibition (in words)

| compound | system.name | readout.name | result |
| --- | --- | --- | --- |
| C/C1=C2/[N-][C@H]([C@H](CC(N)=O)[C@@]2(C)CCC(=O)NC[C@@H](C)OP(=O)([O-])O[C@H]2[C@@H](O)[C@@H](n3cnc4cc(C)c(C)cc43)O[C@@H]2CO)[C@]2(C)N=C(/C(C)=C3N=C(/C=C4N=C1[C@@H](CCC(N)=O)C\4(C)C)[C@@H](CCC(N)=O)[C@]\3(C)CC(N)=O)[C@@H](CCC(N)=O)[C@]2(C)CC(N)=O.[Co+3].[OH-] [Hydroxocobalamin] | NOS1 (nNOS) (Homo sapiens, UniProt P29475) | NOS1 inhibition (in words) | potent |
| C/C1=C2/[N-]C([C@H](CC(N)=O)[C@@]2(C)CCC(=O)NCC(C)O)[C@]2(C)N=C(/C(C)=C3N=C(/C=C4N=C1[C@@H](CCC(N)=O)C\4(C)C)[C@@H](CCC(N)=O)[C@]\3(C)CC(N)=O)[C@@H](CCC(N)=O)[C@]2(C)CC(N)=O.[C-]#N.[C-]#N.[Co] (stereo partly shown) [Dicyanocobinamide] | NOS1 (nNOS) (Homo sapiens, UniProt P29475) | NOS1 inhibition (in words) | potent |
| C/C1=C2/[N-][C@H]([C@H](CC(N)=O)[C@@]2(C)CCC(=O)NC[C@@H](C)O)[C@]2(C)N=C(/C(C)=C3N=C(/C=C4N=C1[C@@H](CCC(N)=O)C\4(C)C)[C@@H](CCC(N)=O)[C@]\3(C)CC(N)=O)[C@@H](CCC(N)=O)[C@]2(C)CC(N)=O.[Co+3] [Cobinamide] | NOS1 (nNOS) (Homo sapiens, UniProt P29475) | NOS1 inhibition (in words) | potent |
